All figures here come from ChEMBL document CHEMBL1122140.

Overview of recorded inhibition in vivo at 30 mg/kg for various molecules
Tested on: Rattus norvegicus
Test: Inhibition of blood pressure increase produced by iv injection of angiotensin I in conscious normotensive rats at a dose of 30 mg/kg
Assay type: functional
Express the result in % but write the number alone.

A selection of reference data follows.
[[record]]
molecule = "C[C@@H](CC(=O)[C@H](Cc1ccccc1)NC(=O)c1ccccc1)C(=O)N1CCC[C@H]1C(=O)O"
assay_value = 71

[[record]]
molecule = "C[C@H](CS)C(=O)N1CCC[C@H]1C(=O)O [CAPTOPRIL]"
assay_value = 69

[[record]]
molecule = "O=C(N[C@@H](Cc1ccccc1)C(=O)CCC(=O)N1CCC[C@H]1C(=O)O)c1ccccc1"
assay_value = 48


Now consider a different molecule.
Problem: Note inhibition in vivo at 30 mg/kg for the molecule shown: C[C@H](CC(=O)[C@H](Cc1ccccc1)NC(=O)c1ccccc1)C(=O)N1CCC[C@H]1C(=O)O
Result: 100
